System: SF-295
experimentalProtocol: NCI tumour cell line growth inhibition, 48 h
Activity calls are given as the source filed them. Cut-off read from the data, not from the text of the source: active = GI50 up to about 1.1 µM and inactive = higher.
Below, each entry is listed with its recorded GI50.

[
  {
    "compound": "COc1cc(/C=C2\\C(=O)N(c3ccc(NC(C)=O)cc3)C(c3ccccc3)S2(=O)=O)cc(OC)c1OC (stereo not given)",
    "targetSystem": "SF-295",
    "GI50": "78 µM (inactive)"
  },
  {
    "compound": "C[N+](C)(C)C1CC([N+](C)(C)C)C2c3ccccc3C21 (stereo not given)",
    "targetSystem": "SF-295",
    "GI50": "> 100 µM (inactive)"
  }
]

Given CC(=O)NNc1nc(C)c(C(=O)NNC(=O)C(=O)Nc2c(Cl)cc([N+](=O)[O-])cc2Cl)s1 , respond with its GI50.
34.8 µM (inactive)

Given C=CCNC(=S)N/N=C1\C(=O)Nc2ccc([N+](=O)[O-])cc21 , respond with its GI50.
29 µM (inactive)

Given Cc1nnc2sc(-c3ccc([N+](=O)[O-])o3)nn12 , respond with its GI50.
16.9 µM (inactive)

Given O=C(NC12CC3CC(CC(C3)C1)C2)n1cnc2c(Cl)ncnc21 , respond with its GI50.
59.8 µM (inactive)

Given O=C(NCCCCCCNC(=O)NC1OCC(O)C(O)C1O)NC1OCC(O)C(O)C1O (stereo not given) , respond with its GI50.
> 100 µM (inactive)

---

Test system: DU-145
experimentalProtocol: NCI tumour cell line growth inhibition, 48 h
Activity calls are given as the source filed them. No stated cut-off is given here; in the data, active = GI50 up to about 1.1 µM and inactive = higher.
Below, each entry is listed with its recorded GI50.

Given C=C1CC(COc2ccc3c(C)cc(=O)oc3c2)(c2ccccc2)OC1=O (centres undefined) , respond with its GI50.
2.48 µM (inactive)

Given CC(=O)OC(C)C1C2=C(C(=O)CC1(C)O)C(=O)c1c(ccc(-c3ccc4c(c3O)C(=O)C3=C(C4=O)C(C(C)OC(C)=O)C(C)(O)CC3=O)c1O)C2=O (centres undefined) , respond with its GI50.
5.78 µM (inactive)

---

Below, each entry is listed with its recorded GI50.
Test system: RPMI-8226
experimentalProtocol: NCI tumour cell line growth inhibition, 48 h
Active and inactive are the calls of the source. Cut-off read from the data, not from the text of the source: active = GI50 up to about 1.1 µM and inactive = higher.

Given Cc1ccc(C(=O)OC[C@H]2CC[C@@H](n3cc(N(C)C4CCCCC4)c(=O)[nH]c3=O)O2)cc1 , respond with its GI50.
31.4 µM (inactive)

Given Cc1nc2sccn2c1C(=O)NN , respond with its GI50.
> 100 µM (inactive)

Given Cc1cc(C)nc(NS(=O)(=O)c2ccc(NC(=O)c3ccc4nc5ccccc5c(Nc5ccc(S(N)(=O)=O)cc5)c4c3)cc2)n1 , respond with its GI50.
64.1 µM (inactive)

---

Tested on: RXF 393
experimentalProtocol: NCI tumour cell line growth inhibition, 48 h
Activity calls are given as the source filed them. Cut-off read from the data, not from the text of the source: active = GI50 up to about 1.1 µM and inactive = higher.
measureName: GI50

[
  {
    "compound": "COc1ccc2c(Cl)cc(NC(=S)Nc3ccccc3)nc2c1",
    "targetSystem": "RXF 393",
    "GI50": "20.2 µM (inactive)"
  },
  {
    "compound": "CC(C)c1cc(C(C)C)c(S(=O)(=O)NN)c(C(C)C)c1",
    "targetSystem": "RXF 393",
    "GI50": "> 100 µM (inactive)"
  },
  {
    "compound": "CN(C)CCNC(=O)Cn1cnc2cccc([N+](=O)[O-])c2c1=O",
    "targetSystem": "RXF 393",
    "GI50": "> 100 µM (inactive)"
  },
  {
    "compound": "CC(=O)OC(C)C1C2=C(C(=O)CC1(C)O)C(=O)c1c(ccc(-c3ccc4c(c3O)C(=O)C3=C(C4=O)C(C(C)OC(C)=O)C(C)(O)CC3=O)c1O)C2=O (stereo not given)",
    "targetSystem": "RXF 393",
    "GI50": "1.74 µM (inactive)"
  }
]

// switching to the query compound
Given Cc1cc(N(CCCCl)CCCCl)ccc1/C=N/c1cccc(Cl)c1 , respond with its GI50.
11.5 µM (inactive)

Recorded values, source ChEMBL document CHEMBL1201862.
